Assay: Cytotoxicity against human CEM cells assessed as reduction in cell viability by MTT assay
Assay type: cell-based
Details: CEM (CCRF-CEM) cells
Mark each entry Fulfilled if its CC50 sits below 40 µM, and Not fulfilled for all others.

Solved cases (2 shown):
line-notation	qualitative-label
Cn1cc(C(=O)C(=O)N2CCOCC2)cc1C(=O)Nc1ccc(F)c(F)c1	Not fulfilled
Cn1cc(C(=O)C(=O)Nc2ccccc2)cc1C(=O)Nc1ccc(F)c(F)c1	Not fulfilled

# ---- query molecule ----
Say whether its CC50 is strictly beneath 40 µM. Entry: C#CCNC(=O)C(=O)c1cc(C(=O)Nc2ccc(F)c(F)c2)n(C)c1
Not fulfilled

----------
Listed here: items and their measured CC50.
Assay: Cytotoxicity against African green monkey Vero cells assessed as reduction in cell viability by MTT assay
Assay type: cell-based
Conditions: chlorocebus sabaeus
Field format: number, assumed µM, no unit text.

Would you please look over these solved cases?
line-notation	CC50 [µM]
Cn1cc(C(=O)C(=O)NOC2CCCC2)cc1C(=O)Nc1ccc(F)c(F)c1	80.1
C#CCNC(=O)C(=O)c1cc(C(=O)Nc2ccc(F)c(F)c2)n(C)c1	89
Cn1cc(C(=O)C(=O)NCc2ccccc2)cc1C(=O)Nc1ccc(F)c(F)c1	62.4
Cn1cc(C(=O)C(=O)NCC#N)cc1C(=O)Nc1ccc(F)c(F)c1	91.4
Cn1cc(C(=O)C(=O)Nc2nccs2)cc1C(=O)Nc1ccc(F)c(F)c1	31.2
C#CCNC(=O)C(=O)c1c(C)c(C(=O)Nc2ccc(F)c(F)c2)n(C)c1C	46.4

API: the following record is the query input.
# query: CC50 of entry Cc1c(C(=O)C(=O)NCc2nccn2C)c(C)n(C)c1C(=O)Nc1ccc(F)c(F)c1
50.6

----------
Assay: Therapeutic index, ratio of CC50 for human HepG2 cells to IC50 for Hepatitis B virus infected in human HePAD38 cells
Assay type: toxicity, cell-based
Conditions: read-out: Ratio CC50/IC50
quantity-kind: selectivity ratio

# query: selectivity ratio of entry C#CCNC(=O)C(=O)c1c(C)c(C(=O)Nc2ccc(F)c(F)c2)n(C)c1C
> 33300

----------
Assay: Cytotoxicity against human HepG2 cells assessed as reduction in cell viability by MTT assay
Type: cell-based
Listed here: items and their measured CC50.

Would you please look over these solved cases?
line-notation	CC50
Cc1c(C(=O)C(=O)Nc2ccccn2)c(C)n(C)c1C(=O)Nc1ccc(F)c(F)c1	83.7 µM
Cn1cc(C(=O)C(=O)Nc2nccs2)cc1C(=O)Nc1ccc(F)c(F)c1	> 100 µM
Cn1cc(C(=O)C(=O)NOC2CCCC2)cc1C(=O)Nc1ccc(F)c(F)c1	> 100 µM

API: the following record is the query input.
# query: CC50 of entry Cn1cc(C(=O)C(=O)N2CC(F)(F)C2)cc1C(=O)Nc1ccc(F)c(F)c1
> 100 µM

----------
Experiment: Cytotoxicity against human PBMC cells assessed as reduction in cell viability by MTT assay
Type: cell-based
quantity-kind: CC50

# query: CC50 of entry CCN(CC)C(=O)C(=O)c1c(C)c(C(=O)Nc2ccc(F)c(F)c2)n(C)c1C
91.7 µM

# query: CC50 of entry Cc1c(C(=O)C(=O)N2CCN(C)CC2)c(C)n(C)c1C(=O)Nc1ccc(F)c(F)c1
≥ 100 µM

# query: CC50 of entry C=CCNC(=O)C(=O)c1cc(C(=O)Nc2ccc(F)c(F)c2)n(C)c1
> 100 µM

# query: CC50 of entry Cn1cc(C(=O)C(=O)N2CCOCC2)cc1C(=O)Nc1ccc(F)c(F)c1
> 100 µM

# query: CC50 of entry Cn1cc(C(=O)C(=O)NCc2ccccc2)cc1C(=O)Nc1ccc(F)c(F)c1
> 100 µM

# query: CC50 of entry C=C1[C@H](CO)[C@@H](O)C[C@@H]1n1cnc2c(=O)[nH]c(N)nc21
15.7 µM

# query: CC50 of entry Cn1cc(C(=O)C(=O)NOC2CCCC2)cc1C(=O)Nc1ccc(F)c(F)c1
≥ 100 µM

# query: CC50 of entry Cn1cc(C(=O)C(=O)Nc2nccs2)cc1C(=O)Nc1ccc(F)c(F)c1
> 100 µM

# query: CC50 of entry Cc1c(C(=O)C(=O)Nc2ccccn2)c(C)n(C)c1C(=O)Nc1ccc(F)c(F)c1
> 100 µM
